TARGET ENTITY: T1, monkey GPC3-His protein (monkey)
T1 construct: Bought protein; also called monkey GPC3 protein
RUN DESCRIPTION: ELISA, monkey GPC3-His coated; antibody 2.67 nM
The entries below are paired with their reported OD450 nm.
Answer with a number only.

hAb001H1aL1b (antibody, human IgG1, V domains shown, Humanized F2.169.2, H1a+L1b) VH: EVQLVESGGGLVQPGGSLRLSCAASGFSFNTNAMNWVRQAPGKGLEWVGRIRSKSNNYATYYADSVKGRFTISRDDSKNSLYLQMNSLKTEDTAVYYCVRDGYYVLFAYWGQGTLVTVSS VL: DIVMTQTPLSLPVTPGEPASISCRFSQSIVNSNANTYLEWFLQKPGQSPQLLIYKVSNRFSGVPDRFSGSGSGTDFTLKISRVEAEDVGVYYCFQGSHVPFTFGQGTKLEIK : 2.39

Switching to the query record.
Query: // lookup OD450 nm for hAb001H1L1 (antibody, human IgG1, V domains shown, Humanized F2.169.2, H1+L1) VH: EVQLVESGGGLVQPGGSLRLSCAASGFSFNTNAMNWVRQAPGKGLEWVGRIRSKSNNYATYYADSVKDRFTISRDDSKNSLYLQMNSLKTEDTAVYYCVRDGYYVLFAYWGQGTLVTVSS VL: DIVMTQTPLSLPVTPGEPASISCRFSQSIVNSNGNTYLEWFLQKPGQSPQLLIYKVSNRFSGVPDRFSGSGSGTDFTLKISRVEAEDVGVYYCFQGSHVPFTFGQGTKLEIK
Reply: 2.54
